experimental target: APC11/APC2 (Homo sapiens, UniProt Q9NYG5+Q9UJX6)
Sequence (Q9NYG5 whole entry): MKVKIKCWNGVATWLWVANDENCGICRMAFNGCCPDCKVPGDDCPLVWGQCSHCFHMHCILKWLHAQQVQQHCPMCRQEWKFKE
Sequence (Q9UJX6 whole entry): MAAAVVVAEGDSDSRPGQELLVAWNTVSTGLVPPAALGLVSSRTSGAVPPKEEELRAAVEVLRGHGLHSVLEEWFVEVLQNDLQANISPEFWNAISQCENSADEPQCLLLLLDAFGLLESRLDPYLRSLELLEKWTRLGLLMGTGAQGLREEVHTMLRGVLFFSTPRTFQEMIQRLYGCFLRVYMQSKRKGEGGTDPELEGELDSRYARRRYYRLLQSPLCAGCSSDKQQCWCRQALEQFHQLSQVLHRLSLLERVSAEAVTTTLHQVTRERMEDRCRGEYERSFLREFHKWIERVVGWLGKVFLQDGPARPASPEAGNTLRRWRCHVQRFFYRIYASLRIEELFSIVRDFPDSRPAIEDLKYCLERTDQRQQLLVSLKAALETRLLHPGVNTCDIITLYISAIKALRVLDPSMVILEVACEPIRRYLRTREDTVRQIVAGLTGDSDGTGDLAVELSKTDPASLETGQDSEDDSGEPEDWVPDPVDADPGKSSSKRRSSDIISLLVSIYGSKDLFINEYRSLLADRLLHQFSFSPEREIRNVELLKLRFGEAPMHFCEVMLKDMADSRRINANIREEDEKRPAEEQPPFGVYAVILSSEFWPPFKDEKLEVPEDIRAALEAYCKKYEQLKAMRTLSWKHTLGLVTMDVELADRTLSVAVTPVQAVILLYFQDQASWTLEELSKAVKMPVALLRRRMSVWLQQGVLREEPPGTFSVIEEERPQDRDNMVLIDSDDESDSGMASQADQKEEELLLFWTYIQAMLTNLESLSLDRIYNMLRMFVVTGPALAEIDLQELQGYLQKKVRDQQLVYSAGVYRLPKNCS
experiment notes: APC-11/APC-2 ligase assay (APC auto ubiquitination)
run parameters: APC assay
measurement type: IC50

INSERT INTO results (chemical_string, observed_measurement) VALUES
  ('Cc1cccc(-c2ccc([N+](=O)[O-])c3nonc23)c1C', '1 to 20 µM'),
  ('O=[N+]([O-])c1ccc(Nc2cccc(F)c2F)c2nonc12', '≥ 20 µM'),
  ('Nc1cccc2c(NS(=O)(=O)c3ccc(N4CCOCC4)c4nonc34)cccc12', '≥ 20 µM'),
  ('CCOC(=O)c1cc(C#N)c(C)nc1N1CCN(c2ccc([N+](=O)[O-])c3nonc23)CC1', '1 to 20 µM'),
  ('COc1cc(NS(=O)(=O)c2ccc(Cl)c3nonc23)c(OC)cc1Cl', '≥ 20 µM'),
  ('O=S(=O)(Nc1c(F)cc(F)cc1F)c1ccc(Cl)c2nonc12', '≥ 20 µM'),
  ('CC(C)(C)c1ccc(-c2ccc(N)c3nonc23)cc1', '≥ 20 µM'),
  ('O=[N+]([O-])c1cc(-c2ccc(C(F)(F)F)cc2C(F)(F)F)c2nonc2c1', '1 to 20 µM'),
  ('Cc1ccc2nsnc2c1S(=O)(=O)Nc1ccccc1F', '≥ 20 µM'),
  ('O=[N+]([O-])c1ccc(N2CCN(c3cc(C(F)(F)F)ccn3)CC2)c2nonc12', '1 to 20 µM'),
  ('O=S(=O)(c1c(Cl)cc(Cl)c2nonc12)N1CCOCC1', '≥ 20 µM'),
  ('CC(C)(C)c1ccc(-c2cc(-c3ccc(C(C)(C)C)cc3)c3nonc3c2)cc1', '≥ 20 µM'),
  ('Cc1cc2cc(NS(=O)(=O)c3ccc(Cl)c4nonc34)ccc2[nH]1', '≥ 20 µM'),
  ('O=S(=O)(c1ccc(Sc2cccc3ccccc23)c2nonc12)N1CCC2(CC1)OCc1ccccc12', '≥ 20 µM'),
  ('CC(=O)c1ccc(-c2ccc([N+](=O)[O-])c3nonc23)cc1', '1 to 20 µM'),
  ('FC(F)(F)c1cc(-c2ccc3c(c2)OCO3)c2nonc2c1', '≥ 20 µM'),
  ('O=S(=O)(Nc1cccc2ccc(O)cc12)c1ccc(Cl)c2nonc12', '1 to 20 µM'),
  ('Cc1cc(NS(=O)(=O)c2ccc(Cl)c3nonc23)no1', '≥ 20 µM');

----------
experimental target: TRAF6/Uev1A/Ubc13 (Homo sapiens, UniProt Q9Y4K3)
Sequence (Q9Y4K3 whole entry): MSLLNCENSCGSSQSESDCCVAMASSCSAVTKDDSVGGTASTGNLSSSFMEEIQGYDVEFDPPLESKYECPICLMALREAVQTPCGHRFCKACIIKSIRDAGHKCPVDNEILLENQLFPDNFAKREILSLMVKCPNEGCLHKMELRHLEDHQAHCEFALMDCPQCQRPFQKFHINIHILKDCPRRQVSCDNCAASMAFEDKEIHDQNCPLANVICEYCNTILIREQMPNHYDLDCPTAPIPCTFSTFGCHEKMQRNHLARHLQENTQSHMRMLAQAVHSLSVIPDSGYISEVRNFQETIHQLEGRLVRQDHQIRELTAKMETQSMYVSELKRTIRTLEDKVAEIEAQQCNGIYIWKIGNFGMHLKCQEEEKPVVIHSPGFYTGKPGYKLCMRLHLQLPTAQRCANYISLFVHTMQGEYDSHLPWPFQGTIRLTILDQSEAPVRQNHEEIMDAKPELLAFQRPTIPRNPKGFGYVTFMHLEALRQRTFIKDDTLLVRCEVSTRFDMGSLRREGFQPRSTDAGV
experiment notes: TRAF6/Uev1A/Ubc13 plate-based ubiquitin ligase assay
Description: For the assays described below, the TRAF6/Uev1A/UBC13 assay is the biochemical plate-based assay of TRAF6 ligase activity using Ubc13 as the E2 enzyme. […] A 96-well Ni-plate was blocked with 100 μl of 1% casein in PBS for 1 hour at room temperature. […] The amount of ubiquitin was measured by adding 100 μl of Lumino substrate (1:5 dilution) and reading the luminescence with a fluorimeter. […]
pIC50: −log10 of the molar value.
Below, each of the compounds is paired with its reported pIC50 value.
measurement type: pIC50

INSERT INTO assay_data (compound, observed_measurement) VALUES
  ('O=C(Nc1ccc([N+](=O)[O-])c2nonc12)c1cccc(F)c1F [compound 427]', '≤ 4.70'),
  ('COc1cc(C)ccc1NS(=O)(=O)c1ccc(N2CCOCC2)c2nonc12 [compound 386]', '≤ 4.70'),
  ('O=C1OC2(CCN(c3cc(N4CCCCC4)c([N+](=O)[O-])c4nonc34)CC2)c2ccccc21 [compound 304]', '≤ 4.70'),
  ('O=S(=O)(Nc1cccc2nonc12)c1ccc(Oc2ccc3c(C(F)(F)F)cc(C(F)(F)F)nc3n2)cc1 [compound 81]', '≤ 4.70'),
  ('O=S(=O)(c1c(Cl)ccc2nonc12)N1CCC(Oc2ccccc2C(F)(F)F)CC1 [compound 229]', '4.70 to 6.00'),
  ('COc1ccc(OC)c(NS(=O)(=O)c2ccc(Nc3ccccc3OC)c3nonc23)c1 [compound 367]', '≤ 4.70'),
  ('Cc1ccc(Sc2ccc([N+](=O)[O-])c3nonc23)cc1 [compound 157]', '4.70 to 6.00'),
  ('CC(=O)OCCCNc1cc(Sc2nnc(C)s2)c2nonc2c1[N+](=O)[O-] [compound 133]', '≤ 4.70'),
  ('O=[N+]([O-])c1ccc(N2CCN(c3ccc(Cl)c(C(F)(F)F)c3)CC2)c2nonc12 [compound 105]', '≤ 4.70'),
  ('O=C1OC2(CCN(S(=O)(=O)c3c(Cl)ccc4nonc34)CC2)c2ccccc21 [compound 337]', '≤ 4.70'),
  ('O=C(O)c1ccc(NS(=O)(=O)c2ccc(Cl)c3nonc23)cc1 [compound 399]', '≤ 4.70'),
  ('COc1ccc(C)cc1NS(=O)(=O)c1ccc(Sc2cccc3cccnc23)c2nonc12 [compound 384]', '4.70 to 6.00'),
  ('O=[N+]([O-])c1ccc(Nc2ccc3cn[nH]c3c2)c2nonc12 [compound 223]', '4.70 to 6.00'),
  ('O=S(=O)(Nc1cccc(F)c1F)c1ccc(Cl)c2nonc12 [compound 271]', '4.70 to 6.00'),
  ('COc1cccc(-c2cc(-c3cccc(OC)c3)c3nonc3c2)c1 [compound 421]', '≤ 4.70'),
  ('CC(C)(C)c1ccc(-c2ccc(N)c3nonc23)cc1 [compound 435]', '≤ 4.70'),
  ('Cc1cccc(-c2cc(-c3cccc(C)c3)c3nonc3c2)c1 [compound 419]', '≤ 4.70'),
  ('O=[N+]([O-])c1ccc(N2CCN(c3ncccc3C(F)(F)F)CC2)c2nonc12 [compound 148]', '4.70 to 6.00'),
  ('O=[N+]([O-])c1c(N2CCCCC2)cc(-c2cccc(C(F)(F)F)c2)c2nonc12 [compound 429]', '≤ 4.70'),
  ('O=S(=O)(c1ccc(Sc2cccc3ccccc23)c2nonc12)N1CCC2(CC1)OCc1ccccc12 [compound 334]', '≤ 4.70'),
  ('O=[N+]([O-])c1cc(-c2cc(F)cc(F)c2)c2nonc2c1 [compound 479]', '≤ 4.70'),
  ('O=[N+]([O-])c1ccc(-c2cc(F)cc(F)c2)c2nonc12 [compound 308]', '≤ 4.70'),
  ('COc1ccccc1Sc1ccc(S(=O)(=O)Nc2cccc(F)c2F)c2nonc12 [compound 378]', '≤ 4.70'),
  ('CC(=O)OCCCNc1cc(SCc2ccco2)c2nonc2c1[N+](=O)[O-] [compound 136]', '≤ 4.70'),
  ('O=[N+]([O-])c1ccc(-c2ccc(F)cc2)c2nonc12 [compound 442]', '4.70 to 6.00'),
  ('COC(=O)c1ccc(NS(=O)(=O)c2ccc(F)c3nonc23)cc1 [compound 167]', '≤ 4.70'),
  ('O=C1OC2(CCN(S(=O)(=O)c3ccc(Cl)c4nonc34)CC2)c2ccccc21 [compound 332]', '≤ 4.70'),
  ('O=[N+]([O-])c1ccc(Sc2ccc3ccccc3n2)c2nonc12 [compound 238]', '4.70 to 6.00'),
  ('O=[N+]([O-])c1ccc(Oc2ccc(NS(=O)(=O)c3cccc4nonc34)cc2)cc1 [compound 101]', '≤ 4.70'),
  ('CCOc1ccc2nc(NS(=O)(=O)c3ccc(Cl)c4nonc34)sc2c1 [compound 198]', '≤ 4.70'),
  ('O=[N+]([O-])c1ccc(N2CCC(Oc3ccccn3)CC2)c2nonc12 [compound 287]', '≤ 4.70'),
  ('COC(=O)c1ccc(NS(=O)(=O)c2ccc(Sc3ccc4ccccc4n3)c3nonc23)cc1 [compound 316]', '≤ 4.70'),
  ('N#Cc1ccc(N2CCN(c3ccc([N+](=O)[O-])c4nonc34)CC2)nc1 [compound 121]', '4.70 to 6.00'),
  ('O=S(=O)(c1c(Cl)cc(Cl)c2nonc12)N1CCOCC1 [compound 411]', '4.70 to 6.00'),
  ('O=S(=O)(c1ccc(Sc2cccc3cccnc23)c2nonc12)N1CCN(c2ccccc2)CC1 [compound 217]', '4.70 to 6.00');

----------
Quick reference: IC50 of the listed items.
experimental target: TRAF6/Uev1A/Ubc13 (Homo sapiens, UniProt Q9Y4K3)
experiment notes: TRAF6/Uev1A/Ubc13 plate-based ubiquitin ligase assay
measurement type: IC50

INSERT INTO assay_data (chemical_string, measurement_type, observed_measurement) VALUES
  ('O=S(=O)(c1ccc(F)c2nonc12)N1CCN(c2ncccc2C(F)(F)F)CC1', 'IC50', '≥ 20 µM'),
  ('O=S(=O)(c1ccc(Cl)c2nonc12)N1CCN(c2ccccc2)CC1', 'IC50', '≥ 20 µM'),
  ('O=S(=O)(Nc1ccc2[nH]ccc2c1)c1ccc(Cl)c2nonc12', 'IC50', '≥ 20 µM'),
  ('O=S(=O)(c1ccc(Cl)c2nonc12)N1CCN(c2ccc(O)cc2)CC1', 'IC50', '≥ 20 µM'),
  ('O=S(=O)(Nc1cccc2nonc12)c1ccc(Oc2ccncc2)cc1', 'IC50', '≥ 20 µM'),
  ('O=[N+]([O-])c1ccc(N2CCN(c3ccccc3)CC2)c2nonc12', 'IC50', '≥ 20 µM'),
  ('Cc1cc(C)cc(-c2cccc3nonc23)c1', 'IC50', '≥ 20 µM'),
  ('COc1cccc(NS(=O)(=O)c2c(Cl)ccc3nonc23)c1OC', 'IC50', '≥ 20 µM'),
  ('COc1ccc(-c2ccc([N+](=O)[O-])c3nonc23)cc1', 'IC50', '1 to 20 µM'),
  ('O=S(=O)(c1ccc(Cl)c2nonc12)N1CCN(c2ncc(C(F)(F)F)cc2Cl)CC1', 'IC50', '1 to 20 µM'),
  ('CC(C)(C)c1ccc(-c2cc([N+](=O)[O-])cc3nonc23)cc1', 'IC50', '1 to 20 µM'),
  ('O=C1CCCN1CCCNS(=O)(=O)c1ccc(Cl)c2nonc12', 'IC50', '≥ 20 µM'),
  ('O=S(=O)(Nc1ccc(F)c(F)c1)c1ccc(Cl)c2nonc12', 'IC50', '≥ 20 µM'),
  ('Cc1ccc(F)cc1NS(=O)(=O)c1ccc(Cl)c2nonc12', 'IC50', '≥ 20 µM'),
  ('O=[N+]([O-])c1ccc(-c2ccc(Oc3ccccc3)cc2)c2nonc12', 'IC50', '1 to 20 µM'),
  ('Fc1cc2nsnc2cc1-c1cccc2c1OCO2', 'IC50', '≥ 20 µM'),
  ('O=[N+]([O-])c1cccc(-c2ccc([N+](=O)[O-])c3nonc23)c1', 'IC50', '1 to 20 µM'),
  ('O=S(=O)(Nc1cccc2nsnc12)c1ccc(Oc2ccc(C(F)(F)F)cc2Cl)nc1', 'IC50', '≥ 20 µM');

Origin of values: patent US20050282818A1
